study.system: RARα (Homo sapiens)
procedure.summary: chimeric receptor transactivation assay, RARα
Assay type: cell-based
condition.description: value in parentheses
parameter.measured: RAR α (EFFICACY)

• Cc1cc(C#Cc2ccc(C(=O)O)cc2)ccc1C1(OCC(C)(C)C)CC1 = (20)
• COC1(c2ccc(C#Cc3ccc(C(=O)O)cc3)cc2)CC1 = (10)
• CC1(C)CC2(CC2)Oc2ccc(C#Cc3ccc(C(=O)O)cc3)cc21 = (207)
• CCCNC1(c2ccc(C#Cc3ccc(C(=O)O)cc3)cc2)CC1 = (15)

----------
study.system: RARα (Homo sapiens, UniProt P10276)
Sequence (P10276 183-417 limits assumed): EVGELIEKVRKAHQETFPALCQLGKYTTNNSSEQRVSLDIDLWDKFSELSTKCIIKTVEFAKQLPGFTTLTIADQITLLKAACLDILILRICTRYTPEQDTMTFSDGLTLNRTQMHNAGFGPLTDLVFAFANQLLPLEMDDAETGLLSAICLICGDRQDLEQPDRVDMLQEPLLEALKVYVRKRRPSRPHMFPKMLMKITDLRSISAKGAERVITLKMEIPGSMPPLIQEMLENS
procedure.summary: chimeric receptor transactivation assay, RARα
Assay type: cell-based
condition.description: value in parentheses
parameter.measured: RAR α (EFFICACY)

- CN(C1CC1)C1CCC(C)(C)c2cc(C#Cc3ccc(C(=O)O)cc3)ccc21 (centres unmarked): (28)
- CCc1cc(C#Cc2ccc(C(=O)O)cc2)ccc1C1(OCc2ccccc2)CC1: (114)
- CC1(C)CC2(CC2)Oc2ccc(C#Cc3ccc(C(=O)O)c(F)c3)cc21: (138)
- CC1(C)CCC(=O)c2ccc(C#Cc3ccc(C(=O)O)c(F)c3)cc21: (146)

Then there is this compound:
## Input Recall the recorded RAR α (EFFICACY) for Cc1cc(C#Cc2ccc(C(=O)O)cc2)ccc1C1(OC(C)C)CC1 with RARα (Homo sapiens, UniProt P10276) and state it.
## Output (60)

----------
study.system: RARγ (Homo sapiens, UniProt P13631)
Sequence (P13631 185-419 limits assumed): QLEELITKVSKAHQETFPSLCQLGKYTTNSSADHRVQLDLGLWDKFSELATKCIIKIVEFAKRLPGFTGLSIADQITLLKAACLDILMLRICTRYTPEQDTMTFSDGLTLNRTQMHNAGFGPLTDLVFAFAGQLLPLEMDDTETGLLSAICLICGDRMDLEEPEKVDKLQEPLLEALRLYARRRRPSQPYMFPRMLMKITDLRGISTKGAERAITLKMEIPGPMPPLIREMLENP
procedure.summary: chimeric receptor transactivation assay, RARγ
Format: cell-based
condition.description: value in parentheses
parameter.measured: RAR γ (EFFICACY)

Below, each entry is followed by its recorded RAR γ (EFFICACY) result.
• Cc1cc(C#Cc2ccc(C(=O)O)cc2)ccc1C1(OCc2ccccc2)CC1 [Compound 81] = (67)
• CCCNC1(c2ccc(C#Cc3ccc(C(=O)O)cc3)cc2)CC1 [Compound 108] = (10)
• Cc1cc(C#Cc2ccc(C(=O)O)cc2)ccc1C1(OCC(C)(C)C)CC1 [Compound 89] = (46)
• Cc1cc(C#Cc2ccc(C(=O)O)cc2)ccc1C1(OC(C)C)CC1 [Compound 85] = (65)
• CN(C1CC1)C1CCC(C)(C)c2cc(C#Cc3ccc(C(=O)O)c(F)c3)ccc21 (stereo not drawn) [Compound 13] = (9)

## Input Lab request: please report RAR γ (EFFICACY) under test system RARγ (Homo sapiens, UniProt P13631) for CC1(C)CCC(=O)c2ccc(C#Cc3ccc(C(=O)O)c(F)c3)cc21 [Compound 10]
## Output (94)

## Input Fill in the recorded RAR γ (EFFICACY) for this compound, with RARγ (Homo sapiens, UniProt P13631) as test system: COC1(c2ccc(C#Cc3ccc(C(=O)O)cc3)cc2)CC1 [Compound 69]
## Output (31)

## Input API: value(readout=RAR γ (EFFICACY), system=RARγ (Homo sapiens, UniProt P13631)) for record CC(C)OC1(c2ccc(C#Cc3ccc(C(=O)O)cc3)cc2)CC1 [Compound 73]
## Output (24)

## Input Param readout = RAR γ (EFFICACY); param system = RARγ (Homo sapiens, UniProt P13631); param query = CCCN(CCC)C1(c2ccc(C#Cc3ccc(C(=O)O)cc3)cc2)CC1 [Compound 110] ; response: value
## Output (42)
